# Tested on: UACC-62 melanoma
# protocolNotes: NCI-60 one-dose screen, 48 h
# conditionSet: 10 µM
The panel holds about 83,000 compounds, 20% with a hit somewhere; the sample as a whole holds those more often. Calls of active or inactive are those of the source. How the source made its calls: active means growth percent below 10; inactive means the rest.
Possible outcomes: t (active), f (inactive)

{"molecule": "O=C(N/N=C/c1ccc(-c2cccc([N+](=O)[O-])c2)o1)c1[nH]c2ccc(Br)cc2c1-c1ccccc1", "classLabel": "f"}
{"molecule": "Cc1cc(C(F)(F)F)ccc1C(=O)Nc1sc2c(c1C#N)CCC(=O)C2", "classLabel": "t"}
{"molecule": "CN1C(=O)N(C)C2SC(N/N=C/c3ccccc3)=NC21 (configuration not stated)", "classLabel": "f"}
{"molecule": "COc1cc(/C=C/C(=O)c2cc(OC)c(OC)c(OC)c2)ccc1Oc1nc(Nc2ccc(F)cc2)nc(N(C)C)n1", "classLabel": "t"}
{"molecule": "CC(=O)Nc1ccc(-n2cnc3cc(-c4ccc(O)cc4)ccc32)cc1C", "classLabel": "f"}
{"molecule": "COc1ccccc1[C@H]1C(C(=O)c2ccc(Cl)cc2)C2(N[C@@H]1c1ccccc1)C(=O)Nc1ccc(Cl)cc12 (some centres not stated)", "classLabel": "t"}
{"molecule": "COc1cc(/C=C/C(=O)c2ccc(NC(=O)CN3C(=O)NC(C)(c4ccccc4)C3=O)cc2)cc(OC)c1OC (configuration not stated)", "classLabel": "f"}
{"molecule": "CC1(c2ccccc2)NC(=O)N(CC(=O)Nc2ccc(C(=O)/C=C/c3ccc(Cl)cc3)cc2)C1=O (configuration not stated)", "classLabel": "t"}
{"molecule": "O=C(Nc1ccc(Cl)c(C(F)(F)F)c1)c1cncc(C#Cc2cnc3ccc(N4CCOCC4)nn23)c1", "classLabel": "t"}
{"molecule": "COc1ccc(C(=O)/C=C/c2cc(F)cc(C(F)(F)F)c2)cc1S(N)(=O)=O", "classLabel": "t"}
{"molecule": "COC[C@@H](CC(C)C)N=C1NC(=O)/C(=C/c2ccc3ncoc3c2)N1", "classLabel": "t"}
{"molecule": "CC1(c2ccccc2)NC(=O)N(CC(=O)Nc2ccc(C(=O)/C=C/C=C/c3ccccc3)cc2)C1=O (configuration not stated)", "classLabel": "f"}
{"molecule": "O=C(Cn1cc(CSc2nnc3oc4ccccc4n23)nn1)Nc1ccc(Br)cc1", "classLabel": "f"}
{"molecule": "COC1CC(Cn2cc(COc3ccc4ccc(=O)oc4c3)nn2)C(OCc2ccccc2)C(OCc2ccccc2)C1OCc1ccccc1 (configuration not stated)", "classLabel": "f"}
{"molecule": "COc1ccc([C@H]2C(C(=O)c3ccc(Cl)cc3)C3(N[C@@H]2c2ccccc2)C(=O)Nc2ccc(Br)cc23)cc1 (some centres not stated)", "classLabel": "t"}
{"molecule": "CC(C)CCSc1nc(NC2CC2)c(C#N)c(-c2ccc(C(C)C)cc2)n1", "classLabel": "f"}
{"molecule": "COc1ccc(-c2cc(-c3cc(C(=O)c4ccccc4)n4ccc(C)cc34)nc(N)c2C#N)cc1", "classLabel": "f"}
{"molecule": "Cc1cccc2cc(-c3cc(-c4ccccc4)nc(=O)[nH]3)c(Cl)nc12", "classLabel": "f"}
{"molecule": "O=C(Nc1cccc([N+](=O)[O-])c1)Nc1cccc([N+](=O)[O-])c1", "classLabel": "f"}
{"molecule": "CCCCOc1ccc(Nc2nc3ccccc3nc2Nc2ccc(OCCCC)cc2)cc1", "classLabel": "f"}
{"molecule": "Nc1nc(Nc2ccccc2)nn1Cc1c(Cl)cccc1Cl", "classLabel": "f"}
{"molecule": "O=c1[nH]c2ccc(Cl)cc2cc1CSc1ccc(Nc2nccc(-c3ccc4ccccc4c3)n2)cc1", "classLabel": "f"}
{"molecule": "COc1ccc(-c2ccc(/C=N/NC(=O)c3[nH]c4ccc(Br)cc4c3-c3ccccc3)s2)cc1", "classLabel": "f"}
{"molecule": "COc1ccc2c(c1)N=C(C(=O)O)/C2=C/c1sc(Nc2ccc(O)cc2)nc1O", "classLabel": "f"}
{"molecule": "CN1CCN(Cc2ccc(NC(=O)c3cncc(C#Cc4cnc5ccc(N[C@H]6CCOC6)nn45)c3)cc2C(F)(F)F)CC1", "classLabel": "t"}
{"molecule": "COc1ccc(C(=O)/C=C/c2cc(C(F)(F)F)cc(C(F)(F)F)c2)cc1S(N)(=O)=O", "classLabel": "t"}
{"molecule": "CC(=O)Nc1ccc(-n2cnc3cc(-c4ccc(O)cc4)ccc32)cc1F", "classLabel": "f"}
